Recorded values, source patent US10329289B2.

Listing of entries alongside the reported log10 EC50.
biological target: human M4 muscarinic acetylcholine receptor (Homo sapiens, UniProt P08173); test: human FLIPR-based M4 PAM assay (Ca2+ mobilization, CHO-K1 cells with human M4 receptor and Gαqi5); conditions: acetylcholine at 20% of maximum response, read-out: M4 PAM IP
Units before log transform: nM; reported quantity: EC50; transform: log10.

Example entries begin here.
>>> result("Cc1cc2c(nc1N1CCC(Oc3ccc4c(c3)COCC4)CC1)[C@H](CO)N(C)C2=O")
2.99
>>> result("Cc1cc2c(nc1N1CCC(Oc3ccc(OCCO)nc3)CC1)CNC2=O")
1.60

Query: log10 EC50 lookup needed for Cc1c(N2CCC(Oc3ccc4c(c3)C[C@@H](O)C4)CC2)nc2c(c1C)C(=O)N(CCO)C2 [Example 264E] , thanks.
Result: 2.10

Query: # log10 EC50 lookup, item COc1ccc(OC2CCN(c3nc4c(cc3C)C(=O)NC4CO)CC2)cn1 (stereo not shown)
Result: 1.68

Query: For the compound Cc1cc2c(nc1N1CCC(Oc3ccc4ccc(=O)[nH]c4c3)CC1)CNC2=O , what log10 EC50 is on record?
Result: 3.37

Query: For CCc1cc2c(nc1N1CC[C@@H](Oc3ccc4c(c3)COC4)[C@H](F)C1)CNC2=O , what is its reported log10 EC50?
Result: 1.62

Query: What value of measured log10 EC50 is listed for COCc1ccc(OC2CCN(c3nc4c(cc3C)C(=O)NC4)CC2)cn1 ?
Result: 2.73

Query: log10 EC50 lookup needed for CCc1cc2c(nc1N1CCC(Oc3ccc4c(c3)COC4)CC1)[C@H](CO)N(C)C2=O , thanks.
Result: 3.32

Query: Endpoint output: log10 EC50 of CCc1cc2c(nc1N1CCC(Oc3cncc(C)c3)CC1)CNC2=O [Example 173A] . Value?
Result: 2.32

Query: log10 EC50 for CCc1cc2c(nc1N1CCC(OCC3(C)CC3)CC1)[C@H](CO)N(C)C2=O ?
Result: 3.54

Query: Given the entry COC(=O)c1cncc(OC2CCN(c3nc4c(cc3C)C(=O)NC4)CC2)c1 , report its measured log10 EC50.
Result: 3.64

Query: Recorded log10 EC50 for Cc1ccc(OC2CCN(c3nc4c(cc3C)C(=O)NC4)CC2)cc1 , please?
Result: 1.68

Query: For Cc1nc2cc(OC3CCN(c4nc5c(cc4C)C(=O)NC5)CC3)ccc2o1 , what is its reported log10 EC50?
Result: 2.16

Query: Recorded log10 EC50 for Cc1cc2c(nc1N1[C@@H]3CC[C@H]1C[C@H](Oc1cccc(C#N)c1)C3)CNC2=O , please?
Result: 3.16

###

molecular target: UniProtKB P08173; test: human FLIPR-based M4 PAM assay (Ca2+ mobilization, CHO-K1 cells with human M4 receptor and Gαqi5); conditions: acetylcholine at 20% of maximum response, read-out: M4 PAM IP
Entries get a class label from measured EC50. See ranges: 1 = under 0.09 µM, 2 = from 0.09 µM up to 0.5 µM, 3 = 0.5 µM and over

>>> assigned_label("Cc1cc2c(nc1N1CC[C@@H](Oc3cnc4c(c3)COC4)[C@H](F)C1)CNC2=O [Example 48A]")
1
>>> assigned_label("Cc1cc2c(nc1N1CC[C@@H](Oc3cccc(C#N)c3)[C@H](O)C1)CNC2=O [Example 43A]")
2
>>> assigned_label("Cc1cc2c(nc1N1CCC(Oc3ccc4c(cnn4C)c3)CC1)[C@H](CO)N(C)C2=O")
3

Next, consider the following molecule.
Query: Classify this molecule: COc1ccc(OC2CCN(c3nc4c(cc3C)C(=O)N(Cc3ccncc3)C4)CC2)cn1
Result: 1

###

Form field: log10(EC50) (one value per entry).
Target: human M4 muscarinic acetylcholine receptor (Homo sapiens)
Sequence (P08173 1-479): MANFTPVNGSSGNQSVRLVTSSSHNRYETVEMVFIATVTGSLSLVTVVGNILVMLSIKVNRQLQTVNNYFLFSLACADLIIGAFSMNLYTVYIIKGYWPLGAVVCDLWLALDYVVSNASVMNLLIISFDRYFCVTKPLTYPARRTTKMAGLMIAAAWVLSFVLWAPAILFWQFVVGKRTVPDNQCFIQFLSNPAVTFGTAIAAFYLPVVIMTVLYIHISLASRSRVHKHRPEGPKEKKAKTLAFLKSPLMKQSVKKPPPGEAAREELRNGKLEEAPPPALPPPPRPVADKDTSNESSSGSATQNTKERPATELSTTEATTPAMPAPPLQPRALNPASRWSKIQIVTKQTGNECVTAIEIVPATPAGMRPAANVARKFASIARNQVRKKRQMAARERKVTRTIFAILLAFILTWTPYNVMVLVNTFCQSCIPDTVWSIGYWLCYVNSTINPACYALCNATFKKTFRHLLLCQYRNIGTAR
Assay: human FLIPR-based M4 PAM assay (Ca2+ mobilization, CHO-K1 cells with human M4 receptor and Gαqi5)
Conditions: acetylcholine at 20% of maximum response, read-out: M4 PAM IP
Units before log transform: nM; reported quantity: EC50; transform: log10.

>>> result("Cc1cc2c(nc1N1CCC(Oc3cnc4c(c3)CCCO4)CC1)CNC2=O")
2.73
>>> result("Cc1cc2c(nc1N1CCC(Oc3ccc4c(c3)COCC4)CC1)CNC2=O")
1.30
>>> result("Cc1cc2c(nc1N1CCC(Oc3cnc4c(c3)CC[C@H]4O)CC1)CNC2=O (single isomer, unassigned) [Example 324D]")
2.83
>>> result("Cc1cc2c(nc1N1CCC(OCc3ncco3)CC1)CNC2=O")
3.68
>>> result("COc1ccc(OC2CCN(c3nc4c(c(C)c3C)C(=O)N(C)[C@@H]4CO)CC2)cn1 [Example 343A]")
1.43
>>> result("Cc1cc2c(nc1N1CCC(Oc3ccc4ncnn4c3)CC1)CNC2=O [Example 197A]")
2.45
>>> result("Cc1c(N2CCC(Oc3cnn(C)c3)CC2)nc2c(c1C)C(=O)NC2")
1.52

Next molecule, log10(EC50) to be filled in.
Query: Missing value: log10(EC50), human M4 muscarinic acetylcholine receptor (Homo sapiens), entry Cc1cc2c(nc1N1CCC(Oc3cccc(Cl)c3)CC1)CNC2=O . Fill in?
Result: 1.66

###

Biological target: human M4 muscarinic acetylcholine receptor (Homo sapiens)
Sequence (P08173 1-479): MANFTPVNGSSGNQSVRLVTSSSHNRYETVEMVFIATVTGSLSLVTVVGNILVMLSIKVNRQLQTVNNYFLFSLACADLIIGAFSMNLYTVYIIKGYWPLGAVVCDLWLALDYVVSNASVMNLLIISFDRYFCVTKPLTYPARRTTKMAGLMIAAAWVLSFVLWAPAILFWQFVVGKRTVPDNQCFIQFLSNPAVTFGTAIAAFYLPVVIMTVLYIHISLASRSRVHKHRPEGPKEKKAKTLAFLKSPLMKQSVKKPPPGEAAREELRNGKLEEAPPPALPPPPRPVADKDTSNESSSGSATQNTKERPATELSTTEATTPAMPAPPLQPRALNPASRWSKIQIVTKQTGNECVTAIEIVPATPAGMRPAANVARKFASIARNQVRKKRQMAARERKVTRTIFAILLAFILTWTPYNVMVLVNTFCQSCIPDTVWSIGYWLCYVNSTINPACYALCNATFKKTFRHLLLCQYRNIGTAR
Assay: human FLIPR-based M4 PAM assay (Ca2+ mobilization, CHO-K1 cells with human M4 receptor and Gαqi5)
Details: acetylcholine at 20% of maximum response, read-out: M4 PAM IP
The reader will find reported EC50 values listed item by item below.
Express your answer in nM, writing the number without its unit.

>>> result("Cc1cc2c(nc1N1CCC(Oc3cnc4c(c3)CC[C@@H]4O)CC1)CNC2=O (single isomer, unassigned) [Example 324C]")
1140
>>> result("Cc1nc2ccc(O[C@@H]3CCN(c4nc5c(cc4C)C(=O)NC5)C[C@@H]3F)cc2o1")
51
>>> result("CCOc1ccc(OC2CCN(c3nc4c(cc3C)C(=O)N(C)[C@H]4CO)CC2)cn1")
8620

Consider the additional compound presented here.
Query: Can you share its EC50? I mean this compound: Cc1cc2c(nc1N1CCC(OC(F)F)CC1)CNC2=O
Result: 2770

###

target: human M4 muscarinic acetylcholine receptor (Homo sapiens, UniProt P08173); assay: human FLIPR-based M4 PAM assay (Ca2+ mobilization, CHO-K1 cells with human M4 receptor and Gαqi5); settings: acetylcholine at 20% of maximum response, read-out: M4 PAM IP
reported endpoint: pEC50
Worth noting: pEC50 values are minus log10 of concentrations stated in mol/L.

Some solved entries appear below for comparison.
>>> result("COCCN1Cc2nc(N3CCC(Oc4ccc(OC)nc4)CC3)c(C)cc2C1=O")
7.03
>>> result("Cc1cc2c(nc1N1CCC(Oc3cccc(C#N)c3)CC1)CN(C1CC1)C2=O")
7.49
>>> result("Cc1cc2c(nc1N1CCC(Oc3ccc4c(c3)CNC4)CC1)CNC2=O")
6.50

Query: // lookup pEC50 for Cc1cc2c(nc1N1CCC(Oc3ccc(F)c(F)c3)CC1)[C@H](CO)N(C)C2=O
Result: 5.09
